- Assayed Target: PTP-1B (Homo sapiens, UniProt P18031)
- Sequence (P18031 1-435): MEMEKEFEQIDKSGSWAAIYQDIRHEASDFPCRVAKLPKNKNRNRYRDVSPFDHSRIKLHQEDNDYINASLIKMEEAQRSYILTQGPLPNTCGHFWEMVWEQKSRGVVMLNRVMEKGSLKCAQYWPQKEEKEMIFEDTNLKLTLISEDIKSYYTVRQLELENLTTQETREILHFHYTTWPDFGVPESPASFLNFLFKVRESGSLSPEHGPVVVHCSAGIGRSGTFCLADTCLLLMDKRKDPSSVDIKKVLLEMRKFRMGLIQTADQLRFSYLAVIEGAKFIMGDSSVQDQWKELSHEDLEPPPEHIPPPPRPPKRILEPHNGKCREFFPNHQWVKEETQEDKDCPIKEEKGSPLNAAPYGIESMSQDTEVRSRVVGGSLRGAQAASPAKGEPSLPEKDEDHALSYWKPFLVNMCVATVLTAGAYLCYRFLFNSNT
Assay Readout: IC50 (µM)

A selection of reference data follows.
O=C(O)c1cccc(Oc2cccc(-c3nnc(Nc4ccc(Cl)c(Cl)c4)s3)c2)c1 [Example 7]
12
O=[N+]([O-])c1cccc(-c2nnc(Nc3cccc(Br)c3)s2)c1 [Example 80]
7
O=C(O)c1ccc(CN(c2ccc(Cl)c(Cl)c2)c2nc(-c3ccc(-c4ccccc4)cc3)cs2)cc1 [Example 168]
1
COc1cccc(-c2nn3cc(-c4ccc(-c5ccccc5)cc4)nc3s2)c1 [Example 16]
12
CCOc1cccc(-c2nnc(Nc3ccc(Br)c(Cl)c3)s2)c1 [Example 66]
7

P: Clc1cc(Nc2nnc(-c3cccc(Oc4ccccc4)c3)s2)ccc1Br [Example 135]
Q: O=C(O)c1cccc(Nc2nnc(-c3cc(OCc4ccccc4)cc(OCc4ccccc4)c3)s2)c1 [Compound 188]
Consider entries P and Q . Which has the numerically lower IC50? // return label of chosen record
P

###

- Assayed Target: CD-45 (Homo sapiens, UniProt P08575)
- Sequence (P08575 609-1306 limits assumed): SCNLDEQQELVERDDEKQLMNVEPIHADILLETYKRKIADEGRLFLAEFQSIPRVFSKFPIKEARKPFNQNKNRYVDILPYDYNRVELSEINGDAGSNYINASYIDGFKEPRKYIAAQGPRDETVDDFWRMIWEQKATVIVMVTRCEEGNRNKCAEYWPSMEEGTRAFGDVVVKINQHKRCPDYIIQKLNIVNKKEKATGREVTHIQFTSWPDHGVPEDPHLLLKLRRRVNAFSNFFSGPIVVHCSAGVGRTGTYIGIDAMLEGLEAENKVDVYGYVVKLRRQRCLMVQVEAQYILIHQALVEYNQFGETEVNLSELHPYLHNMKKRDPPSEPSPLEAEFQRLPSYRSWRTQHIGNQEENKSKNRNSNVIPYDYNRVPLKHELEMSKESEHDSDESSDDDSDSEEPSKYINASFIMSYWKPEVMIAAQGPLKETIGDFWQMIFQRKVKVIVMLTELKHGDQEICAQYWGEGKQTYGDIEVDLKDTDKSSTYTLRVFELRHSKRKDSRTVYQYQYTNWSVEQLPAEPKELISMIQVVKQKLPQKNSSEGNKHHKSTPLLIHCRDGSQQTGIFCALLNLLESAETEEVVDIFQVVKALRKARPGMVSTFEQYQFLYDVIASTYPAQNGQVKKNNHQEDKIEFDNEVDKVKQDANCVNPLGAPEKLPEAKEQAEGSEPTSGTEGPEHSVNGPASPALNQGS
Assay Readout: IC50 (µM)

O=C(O)c1ccc(Cn2nc(-c3cccc(Oc4cccc(C(F)(F)F)c4)c3)sc2=Nc2ccc(Cl)c(Cl)c2)cc1 [Compound 187]
5
COc1cccc(-c2nn3cc(-c4ccc(-c5ccccc5)cc4)nc3s2)c1 [Example 16]
30

a: O=[N+]([O-])c1cccc(-c2nnc(Nc3cccc(Br)c3)s2)c1 [Example 80]
b: Clc1cc(Nc2nnc(-c3cccc(Oc4ccccc4)c3)s2)ccc1Br [Example 135]
Consider entries a and b . Which has the numerically lower IC50? // return label of chosen record
b
(b: 20 µM, a: 80 µM)

###

- Assayed Target: UniProtKB P17706
- Sequence (P17706 1-317 limits assumed): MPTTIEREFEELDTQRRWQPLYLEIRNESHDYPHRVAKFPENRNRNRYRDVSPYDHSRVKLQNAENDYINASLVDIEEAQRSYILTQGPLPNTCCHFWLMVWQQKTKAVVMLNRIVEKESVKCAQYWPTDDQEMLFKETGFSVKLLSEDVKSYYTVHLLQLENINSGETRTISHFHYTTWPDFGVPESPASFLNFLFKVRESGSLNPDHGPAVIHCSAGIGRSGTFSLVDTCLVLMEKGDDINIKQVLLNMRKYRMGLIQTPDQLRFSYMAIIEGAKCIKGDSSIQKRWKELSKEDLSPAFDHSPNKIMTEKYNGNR
- Measurement Protocol: TC-PTP inhibition, pNPP tyrosine phosphatase assay
- Assay Setup: two values in a cell = two determinations
Assay Readout: IC50 (µM)

O=C(O)c1ccc(N/N=C/c2cccc(Oc3cccc(-c4nnc(Nc5ccc(Cl)c(Cl)c5)s4)c3)c2)cc1
1.6

A: CCOc1cccc(-c2nnc(Nc3ccc(Br)c(Cl)c3)s2)c1
B: O=C(O)c1ccc(Cn2nc(-c3cccc(Oc4cccc(C(F)(F)F)c4)c3)sc2=Nc2ccc(Cl)c(Cl)c2)cc1
Consider entries A and B . Which has the numerically lower IC50? // return label of chosen record
B
(B: 1 µM, A: 20 µM)

###

// endpoint pIC50 / system PTP-β (Homo sapiens, UniProt P23467)
pIC50: −log10 of the molar value.
Assay Readout: pIC50

O=C(O)c1cccc(Oc2cccc(-c3nnc(Nc4ccc(Cl)c(Cl)c4)s3)c2)c1
4.51
Clc1ccc(Nc2nnc(-c3cccc(Oc4cccc(-c5nnn[nH]5)c4)c3)s2)cc1Cl
4.62

###

Below, each entry is listed alongside its reported melting point.

A selection of reference data follows.
Clc1ccc(Nc2nnc(-c3cccc(Oc4ccc(Cl)c(Cl)c4)c3)s2)cc1Cl
189 to 190 °C
O=C(O)CCSC(c1cccc(-c2nnc(Nc3ccc(Cl)c(Cl)c3)s2)c1)c1cccc(C(F)(F)F)c1 (centres unmarked)
140 to 141 °C

# lookup: melting point of CC(=NNc1ccc(C(=O)O)cc1)c1cccc(Nc2nnc(-c3cccc(Oc4cccc(C(F)(F)F)c4)c3)s2)c1
277.5 to 279 °C

# lookup: melting point of COc1ccc(Oc2cccc(-c3nnc(Nc4ccc(Cl)c(Cl)c4)s3)c2)cc1
198 to 199 °C

# lookup: melting point of CCOc1cccc(-c2nnc(Nc3ccc(Br)c(C)c3)s2)c1
201 to 202 °C

# lookup: melting point of Clc1cc(Nc2nnc(-c3ccc4nonc4c3)s2)ccc1Br
326 to 327 °C

###

- Assayed Target: UniProt:P23467
pIC50: −log10 of the molar value.
Below, each entry is listed alongside its reported pIC50.

A selection of reference data follows.
Clc1cc(Nc2nnc(-c3cccc(Oc4ccccc4)c3)s2)ccc1Br
< 4.00
COc1cccc(-c2nn3cc(-c4ccc(-c5ccccc5)cc4)nc3s2)c1
< 4.00

# lookup: pIC50 of CCOc1cccc(-c2nnc(Nc3ccc(Br)c(Cl)c3)s2)c1
< 4.00

###

Below, each entry is listed alongside its reported melting point.

A selection of reference data follows.
C/C(=N\OCC(=O)O)c1cccc(Nc2nnc(-c3cccc(Oc4cccc(C(F)(F)F)c4)c3)s2)c1
220 °C (dec.)
O=C(O)c1ccc(CN(c2ccc(Cl)c(Cl)c2)c2nnc(-c3cccc(Oc4cccc(C(F)(F)F)c4)c3)s2)cc1
114 to 116 °C
CCOc1cccc(-c2nnc(Nc3ccc(F)c(Cl)c3)s2)c1
170 to 172 °C

# lookup: melting point of O=[N+]([O-])c1cccc(-c2nnc(Nc3cccc(Br)c3)s2)c1
273 to 275 °C

# lookup: melting point of Clc1ccc(Nc2nnc(-c3cc(OCc4ccccc4)cc(OCc4ccccc4)c3)s2)cc1Cl
212 to 214 °C

# lookup: melting point of O=C(O)Cc1cccc(Oc2cccc(-c3nnc(Nc4ccc(Cl)c(Cl)c4)s3)c2)c1
183 to 184 °C

# lookup: melting point of O=[N+]([O-])c1ccccc1OCc1nnc(Nc2cccc(Br)c2)s1
184 to 185 °C

# lookup: melting point of Oc1ccc(Oc2cccc(-c3nnc(Nc4ccc(Cl)c(Cl)c4)s3)c2)cc1
224 to 225.5 °C

# lookup: melting point of O=C(O)CCCn1nnnc1-c1cccc(Oc2cccc(-c3nnc(Nc4ccc(Cl)c(Cl)c4)s3)c2)c1
137 to 142 °C (dec.)

# lookup: melting point of Clc1ccc(Nc2nnc(-c3ccc4nonc4c3)s2)cc1Cl
315 to 317 °C

# lookup: melting point of CCOc1cccc(-c2nnc(Nc3ccc(Br)c(Cl)c3)s2)c1
204 to 205 °C

###

Below, each entry is listed alongside its reported melting point.

Cc1ccc(Oc2cccc(-c3nnc(Nc4ccc(Cl)c(Cl)c4)s3)c2)cc1
210 to 211 °C
Clc1cc(Cl)cc(Oc2cccc(-c3nnc(Nc4ccc(Cl)c(Cl)c4)s3)c2)c1
242 to 243 °C
FC(F)(F)Oc1cccc(COc2cccc(-c3nnc(Nc4ccc(Cl)c(Cl)c4)s3)c2)c1
166 to 167 °C

# lookup: melting point of Nc1nnc(-c2cccc(Oc3cccc(COc4ccc(Cl)c(Cl)c4)c3)c2)s1
128 to 130 °C

# lookup: melting point of CCOc1cccc(-c2nnc(N(Cc3cccc([N+](=O)[O-])c3)c3ccc(Cl)c(Cl)c3)s2)c1
114 to 115 °C
